Reported EC50 values are given for each entry in this list.
# System: adult C. felis fleas
# experimental_details: Ingestion activity against adult Ctenocephalides felis (membrane feeding, motility)
# study_conditions: 48 h, ingestion in bovine blood, % motility reduction 48h post treatment

These solved cases illustrate the format of a correct answer.
CCS(=O)(=O)c1cc(-c2noc(C3CC3)n2)cnc1-c1nc2cc(C(F)(F)C(F)(F)F)[n+]([O-])nc2n1C [Compound 2] = < 10 µM
CCS(=O)(=O)c1cc(-c2ccc(C3(F)CC3)cc2)cnc1-c1nc2cc(C(F)(F)C(F)(F)F)n[n+]([O-])c2n1C [Compound 36] = 10 to 100 µM
CCS(=O)(=O)c1cc(-c2noc(C3CC3)n2)c[n+]([O-])c1-c1nc2cc(C(F)(F)C(F)(F)F)n[n+]([O-])c2n1C [Compound 4] = 10 to 100 µM
CCS(=O)(=O)c1cc(-c2ccc(C3CC3)cc2)c[n+]([O-])c1-c1nc2cc(C(F)(F)C(F)(F)F)cnc2n1C [Compound 23] = 10 to 100 µM
CCS(=O)(=O)c1cc(-c2ccc(C3(F)CC3)cc2)c[n+]([O-])c1-c1nc2cc(C(F)(F)C(F)(F)F)n[n+]([O-])c2n1C [Compound 45] = < 10 µM

Next up:
Asked: Answer with the recorded EC50 of CCS(=O)(=O)c1cc(-c2noc(C3CC3)n2)cnc1-c1nc2cc(C(F)(F)C(F)(F)F)c[n+]([O-])c2n1C [Compound 33] only.
Given back: < 10 µM

====

# Tested on: adult Ctenocephalides felis fleas
# experimental_details: Contact activity against adult Ctenocephalides felis
# study_conditions: adult C. felis, mortality at 72 hours post-treatment
pEC50: −log10 of the molar value.
endpoint: pEC50

These solved cases illustrate the format of a correct answer.
CCS(=O)(=O)c1cc(-c2noc(C3(C(F)(F)F)CC3)n2)cnc1-c1nc2cc(C(C)(F)F)n[n+]([O-])c2n1C = 4.00 to 5.00
CCS(=O)(=O)c1cc(-c2noc(C3CC3)n2)cnc1-c1nc2cc(C(F)(F)C(F)(F)F)[n+]([O-])nc2n1C = 4.00 to 5.00
CCS(=O)(=O)c1cc(-c2noc(C3CC3)n2)cnc1-c1nc2cc(C(F)(F)C(F)(F)F)n[n+]([O-])c2n1C = 4.00 to 5.00
CCS(=O)(=O)c1cc(-c2ccc(C3(C#N)CC3)cc2)c[n+]([O-])c1-c1nc2cc(C(F)(F)F)cn(CC(F)F)c-2c1F = 4.00 to 5.00

Next up:
Asked: Please indicate recorded pEC50 of CCS(=O)(=O)c1cc(-c2noc(C3CC3)n2)cnc1-c1nc2cc(C(F)(F)C(F)(F)F)c[n+]([O-])c2n1C measured with adult Ctenocephalides felis fleas.
Given back: > 5.00

====

Reported EC50 values are given for each entry in this list.
# System: adult C. felis fleas
# experimental_details: Ingestion activity against adult Ctenocephalides felis (membrane feeding, motility)
# study_conditions: 48 h, ingestion in bovine blood, % motility reduction 48h post treatment

These solved cases illustrate the format of a correct answer.
CCS(=O)(=O)c1cc(-c2cc(C3CC3)ccn2)cnc1-c1nc2cc(C(F)(F)C(F)(F)F)c[n+]([O-])c2n1C = 10 to 100 µM
CCS(=O)(=O)c1cc(-c2noc(C3CC3)n2)c[n+]([O-])c1-c1nc2cc(C(F)(F)C(F)(F)F)nnc2n1C = < 10 µM
CCS(=O)(=O)c1cc(-c2noc(C3(C(F)(F)F)CC3)n2)cnc1-c1nc2cc(C(C)(F)F)n[n+]([O-])c2n1C = < 10 µM
CCS(=O)(=O)c1cc(-c2noc(C3CC3)n2)cnc1-c1nc2cc(C(F)(F)C(F)(F)F)n[n+]([O-])c2n1C = < 10 µM

Asked: Answer with the recorded EC50 of CCS(=O)(=O)c1cc(-c2ccc(C3(F)CC3)cc2)c[n+]([O-])c1-c1nc2cc(C(F)(F)C(F)(F)F)nnc2n1C only.
Given back: < 10 µM
